Provenance of the data: the RepoRT retention time repository (doi:10.1021/acs.analchem.2c02893)

- assayComment: RP, Thermo Scientific Acclaim RSLC 120 C18, 100 × 2.1 mm, 2.2 µm, 30 °C, 0.2 mL/min, estimated dead time 1.1 min; A: 90% water + 10% methanol + 0.01% formic acid + 5 mM ammonium formate, pH 3.61; B: methanol + 0.01% formic acid + 5 mM ammonium formate, pH 3.61; gradient (min/%B) 0/1 1/1 2/39 13/99.9 15/99.9 15.1/1 20.1/1
- studyConditions: stereoisomer not certain
# LC retention time per record follows
measurementKind: LC retention time (min)

>>> print(df.to_string())
                                   compound    measurementkind  valueobserved
0  COP(=S)(OC)Oc1ccc([N+](=O)[O-])cc1 [Parathion-methyl]  LC retention time           9.24
1  CC#Cc1cc(C)nc(Nc2ccccc2)n1 [Mepanipyrim]  LC retention time           10.2
2  Nc1ccc(S(=O)(=O)Nc2ccc(Cl)nn2)cc1 [Sulfachloropyridazine]  LC retention time           4.56
3  CC(C)(C)NCC(O)COc1cccc2c1CCC(=O)N2 (centres undefined) [Carteolol]  LC retention time           3.91
4  Cc1ccc(C2(c3ccccc3)NC(=O)NC2=O)cc1 (centres undefined) [MPPH (5-(p-Methylphenyl)-5-phenylhydantoin)]  LC retention time           8.12
5  CN(CCO)c1nc2c(c(=O)n(C)c(=O)n2C)n1C [Cafaminol]  LC retention time           4.94
6  COc1ccccc1OCCNCC(O)COc1cccc2[nH]c3ccccc3c12 (centres undefined) [Carvedilol]  LC retention time           6.91
7  CN(C)CCC(c1ccccc1)c1ccccn1 (centres undefined) [Pheniramine]  LC retention time           4.98
8  CC1CCCC(C)N1CCCC(O)(c1ccccc1)c1ccccn1 (centres undefined) [Pirmenol]  LC retention time           6.01

----------
- assayComment: RP, Thermo Scientific Acclaim RSLC 120 C18, 100 × 2.1 mm, 2.2 µm, 30 °C, 0.2 mL/min, estimated dead time 1.1 min; A: 90% water + 10% methanol + 0.01% formic acid + 5 mM ammonium formate, pH 3.61; B: methanol + 0.01% formic acid + 5 mM ammonium formate, pH 3.61; gradient (min/%B) 0/1 1/1 2/39 13/99.9 15/99.9 15.1/1 20.1/1
- studyConditions: stereoisomer not certain
Note to self: use rule met only for LC retention time readings below 7 min; a reading exactly at 7 min still gets rule not met.

>>> df
                                   compound    grouplabel
0  Nc1cccc2cc(S(=O)(=O)O)ccc12 [5-Aminonaphthalene-2-sulfonic acid]      rule met
1  CC(N)Cc1cccc(F)c1 (stereo not given) [Amphetamine (3-F-)]      rule met
2  CN1CCCC1c1cccnc1 (stereo not given) [Nicotine]      rule met
3  CCCCCn1cc(C(=O)NC23CC4CC(CC(C4)C2)C3)c2ccccc21 [APICA]  rule not met
4  CCC(=O)C1(c2cccc(O)c2)CCN(C)CC1 [Ketobemidone]      rule met
5  COC(=O)Nc1cccc(OC(=O)Nc2cccc(C)c2)c1 [Phenmedipham]  rule not met
6  COP(=S)(Oc1cc(Cl)c(Br)cc1Cl)c1ccccc1 (stereo not given) [Leptophos]  rule not met
7      NC(N)=NN=Cc1c(Cl)cccc1Cl [Guanabenz]      rule met
